Measured growth by item
- Tested on: SNB-75 CNS
- PROTOCOL: NCI-60 one-dose screen, 48 h (100 = growth as untreated, 0 = no growth, -100 = all killed)
- COND: 10 µM unless noted
About 83,000 compounds went through this panel and 20% of them were active in at least one assay; those are over-represented in the sample as a whole.
Give the value in % but do not write % after it.

Please review the entries below; each comes with its answer.
compound=CCOC(=O)c1c2c(n3cccc(F)c13)C(=O)c1ncccc1C2=O tgt="SNB-75 CNS" measure_name=growth result_units=% test_result=28.7
compound=C=C1C(=O)O[C@H]2[C@H]1CC/C(COC(=O)c1cc3ccccc3s1)=C\CC[C@@]1(C)O[C@@H]21 tgt="SNB-75 CNS" measure_name=growth result_units=% test_result=-7.28
compound="CCCCCN1C(=O)/C(=c2\\sc3n(c2=O)C2C(NN=3)N(CC)C(=O)N2CC)c2ccccc21 (stereo not given)" tgt="SNB-75 CNS" measure_name=growth result_units=% test_result=-51.5

Query: Recorded growth for COc1ccc(-c2cc(-c3ccc(Cl)cc3)c(C#N)c(=O)n2Cc2ccc(C(=O)Nc3ccccc3N)cc2)cc1 , please?
Result: 55.9

Query: Recorded growth for COc1cc(-c2nc3sccn3c2-c2ccnc(NCCNS(=O)(=O)c3ccccc3)n2)ccc1F , please?
Result: 59.4

Query: Recorded growth for Oc1ccc(Cl)cc1/C=N\NC(=S)N/N=C/c1cc(Cl)ccc1O , please?
Result: 77.7

Query: Recorded growth for COc1ccc(NC2=C(I)C(=O)c3ncccc3C2=O)cc1 , please?
Result: -93.1

Query: Recorded growth for COC(=O)c1nc(-c2ccccc2)oc1S(=O)(=O)Cc1ccccc1 , please?
Result: 84.8

Query: Recorded growth for O=C1/C=C/[C@@H](O)[C@@H]2C[C@@H](O)C[C@H]2/C=C/CCC[C@H](CCc2ccccc2)O1 , please?
Result: 28.9

----------
Measured growth by item
- System: SR leukemia
- PROTOCOL: NCI-60 one-dose screen, 48 h (100 = growth as untreated, 0 = no growth, -100 = all killed)
- COND: 10 µM unless noted
Compounds without any hit were thinned out: in the full panel of roughly 83,000, 20% have a hit.
Give the value in % but do not write % after it.

Query: Recorded growth for CC(=O)O[C@@H]1C[C@]2(C(C)C)O[C@@]1(C)[C@@H]1CCC(C)=C1[C@@H]2OC(=O)/C=C/c1ccccc1 , please?
Result: 73.6

Query: Recorded growth for O=C(Nc1nc2ccccc2s1)c1ccc(F)cc1 , please?
Result: 98.4

Query: Recorded growth for COc1ccc(-c2cc(-c3cc(OC)c(OC)c(OC)c3)c(C#N)c(=O)n2CCCCC(=O)NO)cc1 , please?
Result: 13.3

Query: Recorded growth for O=C(CSC(=S)n1cnnc1)NC(=O)c1ccccc1 , please?
Result: 85.3

Query: Recorded growth for CN(C)c1ccc(C(=O)OCCCCCCl)cc1 , please?
Result: 89.4

----------
Measured growth by item
- Test system: UACC-62 melanoma
- PROTOCOL: NCI-60 one-dose screen, 48 h (100 = growth as untreated, 0 = no growth, -100 = all killed)
- COND: 10 µM unless noted
The panel holds about 83,000 compounds, 20% with a hit somewhere; the sample as a whole holds those more often.
Give the value in % but do not write % after it.

Please review the entries below; each comes with its answer.
compound=Cc1cc(C(=O)O)c(C)n1-c1cccc(C(=O)O)c1 tgt="UACC-62 melanoma" test_result=85.1
compound=N#Cc1ccc2c(c1)C(=O)c1c-2n(CCCN)c(=O)c2cc([N+](=O)[O-])ccc12 tgt="UACC-62 melanoma" test_result=-100
compound=Cc1ccc(CNc2ccc3nc(CCC4CCCCC4)[nH]c3c2)cc1 tgt="UACC-62 melanoma" test_result=32.9

Query: Recorded growth for CCCn1cc2c(=O)nc3sc(Cc4ccccc4)c(C)n3c2n1 , please?
Result: 95

Query: Recorded growth for COC12C=C/C(=C(/C(=O)OCc3ccncn3)C(=O)CCCCCCCCC3(OC)C=C/C(=C(/C(=O)OCc4ccncn4)C(=O)CCCCCCCC1)O3)O2 , please?
Result: -47.4

Query: Recorded growth for Nc1c(C(=O)Nc2ccncc2)sc2nc3c(cc12)C(O)CCC3 (centres undefined) , please?
Result: 80

Query: Recorded growth for Cc1cc(C)c2c(c1)N(C)c1ncnc(-n3cnc4cc(C)ccc43)c1CC2C (centres undefined) , please?
Result: 30.7

Query: Recorded growth for COc1ccc(C(=O)C/C(=C\c2ccc(Cl)cc2)C(=O)NCc2ccccc2)cc1 , please?
Result: 67.3

Query: Recorded growth for COc1ccc(/C=C/C(=O)c2cccc(OCCCCOc3cccc(C(=O)/C=C/c4ccc(OC)c(OC)c4)c3)c2)cc1OC , please?
Result: 57.7

----------
- Tested on: SW-620 colon
- PROTOCOL: NCI-60 one-dose screen, 48 h
- COND: 10 µM unless noted
The panel holds about 83,000 compounds, 20% with a hit somewhere; the sample as a whole holds those more often. Activity calls are given as the source filed them. How the source made its calls: active means growth percent below 10; inactive means the rest.
Entry note: the call must match one of true (1) for active, false (0) for inactive

compound="CC1CCc2c(C(=O)Nc3ncc(Cc4cccc([N+](=O)[O-])c4)s3)csc2C1 (stereo not given)" class_label="false (0)"
compound=O=S(=O)(NCCCNc1nccc(-c2c(-c3ccc(F)c(O)c3)nc3occn23)n1)c1ccc(Cl)cc1 class_label="false (0)"
compound=O=C(NCCCl)Nc1ncccc1OCc1ccccc1 class_label="false (0)"

Query: Check the results log: what was the call for COC(=O)/C=C1/SC(=Nc2cccc(OC)c2)N(CCc2c[nH]c3ccc(O)cc23)C1=O ?
Result: false (0)

Query: Check the results log: what was the call for CCOC(=O)n1cc(-c2nonc2-c2cn(C(=O)OCC)c3ccc(Br)cc23)c2ccccc21 ?
Result: false (0)

Query: Check the results log: what was the call for CCc1ccc(CCCC(=O)O)cc1 ?
Result: false (0)

Query: Check the results log: what was the call for C=C1C(=O)O[C@H]2[C@H]1CC/C(COC(=O)/C=C\C(=O)NCc1ccc(Cn3c(=O)sn(CCI)c3=O)cc1)=C\CC[C@@]1(C)O[C@@H]21 ?
Result: true (1)

Query: Check the results log: what was the call for COc1c(C(=O)Nc2ccc(C)c(Br)c2)ccc2ccccc12 ?
Result: false (0)

Query: Check the results log: what was the call for O=C1/C(=C/c2ccccc2Br)COc2ccc(O)cc21 ?
Result: false (0)

Query: Check the results log: what was the call for O=C(O)c1cn(C2CC2)c2cc(N3CCN(C(=O)N(c4ccccc4)c4nc(-c5ccccc5)cs4)CC3)c(F)cc2c1=O ?
Result: false (0)

----------
- Test system: CAKI-1 renal
- PROTOCOL: NCI-60 one-dose screen, 48 h (100 = growth as untreated, 0 = no growth, -100 = all killed)
- COND: 10 µM unless noted
This is part of a sample that, as a whole, favours compounds with a hit. Of some 83,000 tested, about 20% had one in any assay.
Output t for records whose growth is lower than 40%, f for records at or above 40%.

The examples below pair each entry with its known result.
compound=O=C(CSc1oc(-c2ccccc2)nc1S(=O)(=O)c1ccccc1)Nc1ccc(F)cc1 class_label=f
compound=OCCn1cc(-c2nc(-c3c[nH]c4ncccc34)cs2)c2ccccc21 class_label=f
compound=CCN(CC)CCCCCNc1cc(OC(=O)c2ccc(Cl)cc2)cc2cccnc12 class_label=f
compound=C/C(Cc1ccc(Cl)cc1)=C(\c1ccc(O)cc1)c1ccc(Cl)cc1 class_label=f
compound="CCOC(=O)C1=C(c2ccccc2)N=C2SC=C(c3ccc(Cl)cc3)N2C1c1ccc(Br)cc1 (stereo not given)" class_label=f

Now look at this entry.
Query: Quick check: does CCN1C(=O)N(CC)C2C1NN=c1s/c(=C\c3ccccc3F)c(=O)n12 (stereo not given) have growth under 40%?
Result: t

----------
- Tested on: MCF7 breast
- PROTOCOL: NCI-60 one-dose screen, 48 h
- COND: 10 µM unless noted
Compounds without any hit were thinned out: in the full panel of roughly 83,000, 20% have a hit. The source made the active and inactive calls. The calls were made as follows: active = growth percent below 10; inactive = the rest.
Entry note: the call must match one of active, inactive

compound=COc1ccc(/C=C/C(=O)c2cc3c(N)c(C(=O)Nc4cccc5ccccc45)sc3nc2C)cc1 class_label=inactive
compound=C/C(Cc1ccc(Cl)cc1)=C(\c1ccc(O)cc1)c1ccc(Cl)cc1 class_label=inactive

Query: Check the results log: what was the call for CCC(C)(C)C(=O)O[C@H]1C[C@@H](C)C=C2C=C[C@H](C)[C@H](CC[C@@H]3CC(SCCN)CC(=O)O3)[C@H]21 (stereo partly drawn) ?
Result: inactive

Query: Check the results log: what was the call for O=[N+]([O-])c1ccc(O)cc1Br ?
Result: inactive

Query: Check the results log: what was the call for CCOC(=O)C1=C(c2ccccc2)N=C2SC=C(c3ccc(Cl)cc3)N2C1c1ccc(Cl)cc1 (stereo not drawn) ?
Result: inactive

Query: Check the results log: what was the call for COC(=O)[C@]12CCC(C)(C)C[C@H]1[C@H]1/C(=N/OCCc3nn[nH]n3)C[C@@H]3[C@@]4(C)CC[C@H](OC(C)=O)C(C)(C)[C@@H]4CC[C@@]3(C)[C@]1(C)CC2 ?
Result: inactive

Query: Check the results log: what was the call for CCC(=O)Oc1ccc(-c2ccccc2)cc1Br ?
Result: inactive

Query: Check the results log: what was the call for O=S(=O)(NCCNc1nccc(-c2c(-c3ccc(F)c(O)c3)nc3sccn23)n1)c1ccc(O)cc1 ?
Result: inactive

Query: Check the results log: what was the call for COc1cc(C2CC(c3ccc(Nc4nc(Nc5ccc(Cl)cc5)nc(Nc5ccc(Cl)cc5)n4)cc3)=NN2C(C)=O)cc(OC)c1OC (stereo not drawn) ?
Result: inactive

Query: Check the results log: what was the call for C[C@@H](CO)[C@@H]1CCC=C2CC[C@]3(C)[C@H](CC[C@@H]4[C@@]5(C)CCCNC(C)(C)[C@@H]5CC[C@]43C)[C@H]21 ?
Result: active

Query: Check the results log: what was the call for O=S(=O)(Nc1cc(F)cc(Cl)c1)c1ccc(-c2cnc(C3CC3)o2)cc1 ?
Result: inactive

Query: Check the results log: what was the call for COc1c(B(O)O)cccc1-c1cc(C)c2c(ccc3[nH]ncc32)n1 ?
Result: inactive
